Source: patent US20240182536A1

# systemTested: T1, IL-18 binding protein (IL-18BP) (UniProt O95998 31-194); further: unit not given here
# T1 sequence (looked up): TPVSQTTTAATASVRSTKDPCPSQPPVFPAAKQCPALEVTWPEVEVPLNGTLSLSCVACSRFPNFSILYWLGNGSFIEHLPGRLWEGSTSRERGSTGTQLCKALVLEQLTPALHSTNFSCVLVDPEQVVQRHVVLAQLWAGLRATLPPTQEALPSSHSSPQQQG
# testName: cell-based or functional assay
Entries and their Activity, +100 nM BP, DF-25000004

INSERT INTO results (binder, reportedresult) VALUES
  ('IL-18 variant G3P, E6K, D54Y, S55P, T63S, N91S, R104Q, Q154R (ligand) YFPKLKSKLSVIRNLNDQVLFIDQGNRPLFEDMTDSDMRDNAPRTIFIISMYKYPQPRGMAVSISVKSEKISTLSSENKIISFKEMNPPDSIKDTKSDIIFFQQSVPGHDNKMQFESSSYEGYFLASEKERDLFKLILKKEDELGDRSIMFTVRNED', 0.39),
  ('IL-18 variant G3Q, E6G, D54N, S55H, T63V, N91M, R104T (ligand) YFQKLGSKLSVIRNLNDQVLFIDQGNRPLFEDMTDSDMRDNAPRTIFIISMYKNHQPRGMAVVISVKSEKISTLSSENKIISFKEMNPPDMIKDTKSDIIFFQTSVPGHDNKMQFESSSYEGYFLASEKERDLFKLILKKEDELGDRSIMFTVQNED', 0.7);

Next:
Lookup: Supply reported Activity, +100 nM BP, DF-25000004 belonging to this binder: IL-18 variant G3P, E6K, K53T, D54Y, S55V, T63I, N91I (ligand) YFPKLKSKLSVIRNLNDQVLFIDQGNRPLFEDMTDSDMRDNAPRTIFIISMYTYVQPRGMAVIISVKSEKISTLSSENKIISFKEMNPPDIIKDTKSDIIFFQRSVPGHDNKMQFESSSYEGYFLASEKERDLFKLILKKEDELGDRSIMFTVQNED
Found: 0.08
